Experiment: CNP immunoreactivity concentration in plasma after administration to rats (competitive RIA), pharmacokinetic parameters (Example 2)
Type: in vivo, rat
Conditions: rat, plasma, sc; subcutaneous, 0.1 mg/kg, male rats, N = 3, mean ± SD
Method: Pharmacokinetic parameters were calculated from the resulting changes in immunoreactivity concentrations in plasma. At that time, WinNonlin Professional Ver. 4.0.1 (manufactured by Pharsight Corporation, U.S.A.) was used as the analytical software. […] Concentration at time 0 (C0; extrapolated value, ng/mL), area under the curve for concentration in plasma vs. time (AUC; ng.min/mL) and quenching half-life (T½; minute(s)) were calculated as follows. […]
property: Cmax (ng/mL)
API: value field is a number in ng/mL; no unit string.

Cmax for CC[C@H](C)[C@@H]1NC(=O)[C@H](CCCNC(=N)N)NC(=O)[C@H](CC(=O)O)NC(=O)[C@H](CC(C)C)NC(=O)[C@H](CCCCN)NC(=O)[C@H](CC(C)C)NC(=O)CNC(=O)[C@H](Cc2ccccc2)NC(=O)[C@@H](NC(=O)CNC(=O)[C@H](CCCCN)NC(=O)[C@H](CO)NC(=O)[C@H](CC(C)C)NC(=O)CN)CSSC[C@@H](C(=O)O)NC(=O)CNC(=O)[C@H](CC(C)C)NC(=O)CNC(=O)[C@H](CO)NC(=O)[C@H](CCSC)NC(=O)[C@H](CO)NC(=O)CNC1=O [Native CNP-22] is 55.6

The reported measurements were obtained from patent US8551937B2.
